All figures here come from patent US20250145628A1.

target: human CB1 receptor (Homo sapiens, UniProt P21554); construct: expressed in transfected cells; host or cells: HEK293; experiment: bioSensAll β-arrestin plasma membrane translocation BRET biosensor (+GRK2) assay (antagonism of CP-55,940); assay type: cell-based; details: HEK293 cells transfected with hCB1 and β-arrestin PM translocation biosensor (+GRK2), EC75 of CP-55,940 (100 nM), overnight incubation, read-out: CB1 wt βarr2 IC50
Sequence (P21554 whole entry): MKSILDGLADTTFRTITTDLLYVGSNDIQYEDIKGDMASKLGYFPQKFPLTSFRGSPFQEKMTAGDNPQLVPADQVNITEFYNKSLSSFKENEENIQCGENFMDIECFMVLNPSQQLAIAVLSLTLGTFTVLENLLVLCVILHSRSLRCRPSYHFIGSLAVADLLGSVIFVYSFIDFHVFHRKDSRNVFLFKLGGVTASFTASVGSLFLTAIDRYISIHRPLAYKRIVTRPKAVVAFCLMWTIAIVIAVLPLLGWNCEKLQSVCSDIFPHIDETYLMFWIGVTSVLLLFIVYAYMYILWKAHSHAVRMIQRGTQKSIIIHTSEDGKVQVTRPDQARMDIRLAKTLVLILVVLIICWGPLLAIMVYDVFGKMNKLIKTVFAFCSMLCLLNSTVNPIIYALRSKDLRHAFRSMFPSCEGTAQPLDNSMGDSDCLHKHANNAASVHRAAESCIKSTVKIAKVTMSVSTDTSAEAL
OUTCOME_MEASURE: log10(IC50) (log10 of the value in nM)
Use the decimal logarithm of IC50 (nM).

// worked examples, log10(IC50) included
{"columns": ["COMPOUND", "log10(IC50)"],
 "data": [
  ["CCNC(=O)CN(C)c1cc(N2CCC(OCC)(C(N)=O)CC2)n2nc(-c3ccccc3Cl)c(-c3ccc(Cl)cc3)c2n1", 1.29],
  ["C[C@H](CO)Oc1cc(-c2ccc(C(F)(F)F)nc2)n2nc(-c3ccccc3Cl)c(-c3ccc(Cl)cc3)c2n1 [Compound 71(R)]", 1.09],
  ["CNC(=O)CCN(C)c1cc(N2CCC[C@@H](C(N)=O)C2)n2nc(-c3ccccc3Cl)c(-c3ccc(Cl)cc3)c2n1", 2.21],
  ["CCOC1(C(N)=O)CCN(c2cc(N(C)CC(C)(C)O)nc3c(-c4ccc(Cl)cc4)c(-c4ccccc4Cl)nn23)CC1", 1.16],
  ["CN(C[C@H](O)CO)c1cc(N2CCC(C)(C(N)=O)CC2)n2nc(-c3ccccc3Cl)c(-c3ccc(Cl)cc3)c2n1", 1.16]
]}

Provide log10(IC50) value for the following compound: CN(CCOCCO)c1cc(N2CCC(C)(C(N)=O)CC2)n2nc(-c3ccccc3Cl)c(-c3ccc(Cl)cc3)c2n1
1.67
